Ki tested on A2A receptor (Sus scrofa): recorded values
Sequence (K9IW67 1-409): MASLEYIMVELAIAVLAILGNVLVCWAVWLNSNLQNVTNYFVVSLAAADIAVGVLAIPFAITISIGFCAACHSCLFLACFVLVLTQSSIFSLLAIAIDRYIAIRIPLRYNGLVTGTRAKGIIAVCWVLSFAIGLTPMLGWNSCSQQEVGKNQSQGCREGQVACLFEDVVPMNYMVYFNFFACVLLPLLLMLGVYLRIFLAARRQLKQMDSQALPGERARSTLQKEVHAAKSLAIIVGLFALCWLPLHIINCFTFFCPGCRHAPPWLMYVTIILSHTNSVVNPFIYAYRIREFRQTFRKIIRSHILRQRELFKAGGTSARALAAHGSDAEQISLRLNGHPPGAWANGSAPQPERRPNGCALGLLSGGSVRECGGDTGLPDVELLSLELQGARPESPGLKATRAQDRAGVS

Solved cases (4 shown):
| compound-string | experimental-endpoint | test-result |
| --- | --- | --- |
| Nc1nc(C#CCOc2ccc(-c3ccccc3)cc2)nc2c1ncn2[C@@H]1O[C@H](CO)[C@@H](O)[C@H]1O | Ki | 1000 to 10000 nM |
| N#Cc1ccc(OCC#Cc2nc(N)c3ncn([C@@H]4O[C@H](CO)[C@@H](O)[C@H]4O)c3n2)cc1 | Ki | 100 to 1000 nM |
| Nc1nc(C#CCOc2ccccc2)nc2c1ncn2[C@@H]1O[C@H](CO)[C@@H](O)[C@H]1O | Ki | 10 to 100 nM |
| Nc1nc(C#CCOc2cccc3c2OCO3)nc2c1ncn2[C@@H]1O[C@H](CO)[C@@H](O)[C@H]1O | Ki | 10 to 100 nM |

Please look at the following compound next.
input: For the record "CC(C)(C)c1cc(OCC#Cc2nc(N)c3ncn([C@@H]4O[C@H](CO)[C@@H](O)[C@H]4O)c3n2)cc(C(C)(C)C)c1" , what value of Ki is listed for A2A receptor (Sus scrofa)?
output: 1000 to 10000 nM
